molecular target: Ataxin-2 (Homo sapiens) (UniProt Q99700); assay: qHTS for Inhibitors of ATXN expression.; assay type: functional
Sequence (Q99700 whole entry): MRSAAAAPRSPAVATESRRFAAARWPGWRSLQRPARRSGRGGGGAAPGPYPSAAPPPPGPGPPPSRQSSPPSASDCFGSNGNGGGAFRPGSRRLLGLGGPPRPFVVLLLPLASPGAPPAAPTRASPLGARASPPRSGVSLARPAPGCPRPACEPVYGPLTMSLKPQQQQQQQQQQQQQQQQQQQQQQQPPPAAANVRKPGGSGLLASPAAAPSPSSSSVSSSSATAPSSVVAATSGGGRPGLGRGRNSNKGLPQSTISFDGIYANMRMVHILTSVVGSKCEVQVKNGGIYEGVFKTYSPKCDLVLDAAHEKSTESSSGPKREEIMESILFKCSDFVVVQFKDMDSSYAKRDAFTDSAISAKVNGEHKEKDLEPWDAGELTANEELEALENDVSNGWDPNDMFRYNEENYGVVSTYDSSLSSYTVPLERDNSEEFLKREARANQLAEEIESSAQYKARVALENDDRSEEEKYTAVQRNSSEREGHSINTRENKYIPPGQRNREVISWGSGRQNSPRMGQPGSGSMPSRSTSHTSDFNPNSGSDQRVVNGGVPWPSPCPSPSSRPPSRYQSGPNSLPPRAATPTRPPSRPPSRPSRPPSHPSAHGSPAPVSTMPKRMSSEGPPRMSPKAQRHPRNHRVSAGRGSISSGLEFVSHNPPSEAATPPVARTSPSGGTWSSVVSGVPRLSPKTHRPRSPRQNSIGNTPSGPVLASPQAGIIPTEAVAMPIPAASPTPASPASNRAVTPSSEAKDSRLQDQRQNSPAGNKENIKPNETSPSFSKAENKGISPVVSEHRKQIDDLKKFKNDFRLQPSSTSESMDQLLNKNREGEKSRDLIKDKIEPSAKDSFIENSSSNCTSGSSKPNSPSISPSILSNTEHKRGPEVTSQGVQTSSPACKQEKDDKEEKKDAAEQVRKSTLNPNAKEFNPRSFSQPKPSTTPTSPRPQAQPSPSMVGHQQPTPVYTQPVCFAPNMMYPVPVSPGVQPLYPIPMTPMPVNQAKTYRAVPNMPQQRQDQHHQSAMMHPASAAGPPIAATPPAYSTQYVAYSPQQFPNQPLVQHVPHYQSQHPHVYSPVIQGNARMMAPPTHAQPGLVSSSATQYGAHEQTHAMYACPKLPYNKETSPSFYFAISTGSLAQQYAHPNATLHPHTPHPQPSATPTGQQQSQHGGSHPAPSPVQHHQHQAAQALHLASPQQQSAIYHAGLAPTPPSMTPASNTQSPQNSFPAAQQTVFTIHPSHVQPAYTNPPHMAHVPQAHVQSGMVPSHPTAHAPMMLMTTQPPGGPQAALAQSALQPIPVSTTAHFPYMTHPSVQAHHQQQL
Hit rate of the full screen: of about 400,000 compounds, about 2,100 (0.53%) were called active. Inconclusive results (about 14%) are left out. How the calls were made is not given here. The list comes from a sample in which actives are over-represented; it also holds close analogues and randomly drawn compounds.
Form entry, call: pick from yes = active, no = inactive

Recorded results for 8 compounds are shown here.
[
  {
    "compound": "Cc1ccc(C(=O)c2oc3ccccc3c2NC(=O)c2cc(-c3ccccc3O)[nH]n2)cc1",
    "class.assignment": "no"
  },
  {
    "compound": "CCN(Cc1cc(=O)n2cc(Cl)c(C)c(Cl)c2n1)Cc1nc(O)c2ccccc2n1",
    "class.assignment": "no"
  },
  {
    "compound": "Cc1cccc(/C=C(\\C(=O)C(=O)O)c2ccc3ccccc3n2)c1",
    "class.assignment": "no"
  },
  {
    "compound": "Cc1ccc(C(=O)CSc2nnc(C3CC3)n2C2CC2)s1",
    "class.assignment": "no"
  },
  {
    "compound": "Cc1c(Cl)cccc1NS(=O)(=O)c1cccc2nsnc12",
    "class.assignment": "no"
  },
  {
    "compound": "CCN(CC)c1ccc(/C=C(\\C#N)C(=O)NCc2ccccc2)cc1",
    "class.assignment": "no"
  },
  {
    "compound": "CCCCN(C(=O)C1CCC(CNS(=O)(=O)c2cccc3nsnc23)CC1)c1ccccc1 (stereo unspecified)",
    "class.assignment": "yes"
  },
  {
    "compound": "CC[C@@H]1C(c2ccccc2)=NN(c2ccc(Br)cc2)[C@H]1C(=O)N1CCOC1=O",
    "class.assignment": "no"
  }
]

Tell me the recorded outcome of this test for CCCN(C(=O)CCl)C1=CCCCC1 .
yes

Tell me the recorded outcome of this test for O=C(Nc1ccccc1)Nc1cccc2nsnc12 .
no

Tell me the recorded outcome of this test for COCC1CCCN(Cc2cn(-c3ccccc3F)nc2-c2cc(C)sc2C)C1 (stereo unspecified) .
no

====

target: Ataxin-2 (Homo sapiens); test: qHTS for Inhibitors of ATXN expression.; format: functional
Out of some 400,000 compounds screened, about 2,100 (0.53%) were called active. Roughly 14% stayed inconclusive and do not appear here. The rule behind the calls is not given here. The list comes from a sample in which actives are over-represented; it also holds close analogues and randomly drawn compounds.
Form entry, call: pick from t (active), f (inactive)

Recorded results for 3 compounds are shown here.
[
  {
    "compound": "Nc1nnnn1/N=C/c1ccccc1O",
    "assay.target": "Ataxin-2 (Homo sapiens)",
    "class.assignment": "f"
  },
  {
    "compound": "c1cc(-c2sc(-c3ccncc3)c(-c3ccncc3)c2-c2ccncc2)ccn1",
    "assay.target": "Ataxin-2 (Homo sapiens)",
    "class.assignment": "f"
  },
  {
    "compound": "CC(C)CC1C(=O)N(Cc2cn(CCC3OCCO3)nn2)CCS(=O)(=O)N1Cc1ccc(-c2ccc(F)cc2)cc1 (configuration not stated)",
    "assay.target": "Ataxin-2 (Homo sapiens)",
    "class.assignment": "t"
  }
]

Tell me the recorded outcome of this test for CCOC(=O)c1cc2c(=O)n3ccccc3nc2n(CCCOC)/c1=N\C(=O)C(C)Oc1ccccc1 (configuration not stated) .
f

Tell me the recorded outcome of this test for COc1cc2ccccc2nn1 .
f

Tell me the recorded outcome of this test for Clc1ccc2c(NCCNC3CCCCC3)ccnc2c1 .
t

Tell me the recorded outcome of this test for S=C(c1ccc(-c2ccc(Br)cc2)o1)N1CCCCC1 .
f

Tell me the recorded outcome of this test for CC(C)CC1C(=O)N(Cc2cn(CCC3OCCO3)nn2)CCS(=O)(=O)N1Cc1ccc(-c2ccc(Cl)c(Cl)c2)cc1 (configuration not stated) .
t

Tell me the recorded outcome of this test for CCOCCCn1c(=N)c(C(=O)NCC2CCCO2)cc2c(=O)n3cc(C)ccc3nc21 (configuration not stated) .
f

Tell me the recorded outcome of this test for CN(Cc1nc(-c2cnccn2)no1)C1CC(C)(C)NC(C)(C)C1 .
f

Tell me the recorded outcome of this test for CCS(=O)(=O)c1ccc2oc(SCC(=O)NCCc3ccccc3)nc2c1 .
f

Tell me the recorded outcome of this test for CNC(=O)/C(C#N)=C/c1c(N2CCN(c3ccc(OC)cc3)CC2)nc2c(C)cccn2c1=O .
f

Tell me the recorded outcome of this test for COc1ccccc1NC(=O)N(C)C[C@@H]1OCc2ccccc2-c2c(n(C)c3ccccc23)C(=O)N([C@H](C)CO)C[C@@H]1C .
t

Tell me the recorded outcome of this test for O=c1c(O)c(-c2ccc(O)c(O)c2)oc2cc(O)ccc12 .
f

Tell me the recorded outcome of this test for CC(c1ccccc1)N(C)C(=O)CN1CCN(S(=O)(=O)c2ccc3c(c2)OCCCO3)CC1 (configuration not stated) .
f

Tell me the recorded outcome of this test for CCCN(C(=O)c1cccc(S(=O)(=O)N2CCCc3ccccc32)c1)C1CCS(=O)(=O)C1 (configuration not stated) .
f
